- Target Under Test: T1, 5-domain TAT10772 (human)
- T1 construct: Recombinant portion of the extracellular domain, expressed in CHO cells; also called 5-mucin domain
- T1 chain: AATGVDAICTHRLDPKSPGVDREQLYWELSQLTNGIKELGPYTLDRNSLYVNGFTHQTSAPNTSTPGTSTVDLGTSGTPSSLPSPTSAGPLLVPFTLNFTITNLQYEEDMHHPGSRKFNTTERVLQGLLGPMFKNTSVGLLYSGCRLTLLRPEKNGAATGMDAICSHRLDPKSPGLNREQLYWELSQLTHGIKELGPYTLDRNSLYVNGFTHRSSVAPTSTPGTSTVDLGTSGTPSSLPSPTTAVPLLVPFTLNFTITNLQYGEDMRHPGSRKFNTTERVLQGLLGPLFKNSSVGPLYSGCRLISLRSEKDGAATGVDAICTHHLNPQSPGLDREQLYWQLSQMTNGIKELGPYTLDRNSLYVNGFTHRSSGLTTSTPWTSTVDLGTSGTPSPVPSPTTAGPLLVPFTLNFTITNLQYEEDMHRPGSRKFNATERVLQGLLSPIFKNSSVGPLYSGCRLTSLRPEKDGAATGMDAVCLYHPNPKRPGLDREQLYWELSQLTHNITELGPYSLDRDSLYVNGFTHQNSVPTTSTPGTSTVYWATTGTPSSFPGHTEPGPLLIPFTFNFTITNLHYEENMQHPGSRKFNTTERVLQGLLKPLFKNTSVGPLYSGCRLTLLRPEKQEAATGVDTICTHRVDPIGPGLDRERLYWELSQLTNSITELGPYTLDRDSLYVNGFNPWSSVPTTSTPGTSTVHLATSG
- Protocol Details: Biacore SPR, 5′-domain TAT10772 over immobilized IgG
Consider the following binders and their measured kon readings.
Returns: string containing the numeric result and its unit.

>>> result("3A5v2 (SEQ ID NO: 199) (antibody, V domains shown, Humanized IgG) VH: EVQLVESGGGLVQPGGSLRLSCAASGYSITNDYAWNWVRQAPGKGLEWVGYINYSGYTTYNPSLKSRFTISRDTSKNTFYLQMNSLRAEDTAVYYCARWASGLSHWGQGTLVTVSS VL: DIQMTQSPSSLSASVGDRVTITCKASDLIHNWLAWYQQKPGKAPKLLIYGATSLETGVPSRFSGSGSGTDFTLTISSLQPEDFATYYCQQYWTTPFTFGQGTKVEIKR")
"33400 M⁻¹ s⁻¹"
>>> result("3A5v3 (SEQ ID NO: 200) (antibody, V domains shown, Humanized IgG) VH: EVQLVESGGGLVQPGGSLRLSCAASGYSITNDYAWNWVRQAPGKGLEWVGYINYSGYTTYNPSLKSRFTISRDTSKNTFYLQMNSLRAEDTAVYYCARWASGLSYWGQGTLVTVSS VL: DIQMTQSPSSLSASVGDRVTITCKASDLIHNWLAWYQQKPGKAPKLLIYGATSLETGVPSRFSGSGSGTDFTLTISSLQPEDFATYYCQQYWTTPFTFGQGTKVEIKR")
"36200 M⁻¹ s⁻¹"

Now for the binder whose kon we want.
IN: Quick one: kon of 3A5v8 (SEQ ID NO: 205) (antibody, V domains shown, Humanized IgG) VH: EVQLVESGGGLVQPGGSLRLSCAASGYSITNDYAWNWVRQAPGKGLEWVGYINYSGYTTYNPSLKSRFTISRDTSKNTLYLQMNSLRAEDTAVYYCARWTSGLDSWGQGTLVTVSS VL: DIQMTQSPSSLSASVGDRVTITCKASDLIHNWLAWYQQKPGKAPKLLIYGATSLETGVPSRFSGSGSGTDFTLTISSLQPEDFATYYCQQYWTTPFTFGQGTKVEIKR ?
OUT: 55100 M⁻¹ s⁻¹
